Values from PubChem BioAssay (NCI)

The following compounds are shown together with reported TGI values.
- Tested on: SN12C renal
- assay_text: NCI tumour cell line growth inhibition, 48 h
assay_metric: TGI

>>> test_value("CC(=O)NNc1nc(-c2ccc([N+](=O)[O-])cc2)c(C#N)c(=O)n1C")
"> 100 µM"
>>> test_value("Cc1cc(N(CCCNc2ccnc3cc(Cl)ccc23)Cc2ccc3c(c2)OCO3)nc(N2CCOCC2)n1")
"14.4 µM"
>>> test_value("CC1(C)OC[C@@H]([C@H](O)C2C=CC(=O)S2)O1 (stereo partly specified)")
"> 100 µM"
>>> test_value("CN(C)CCC(=O)C(=Cc1ccc(O)cc1)C(=O)CCN(C)C")
"> 100 µM"
>>> test_value("CC(C)OC(=O)[C@H](C)NP(=O)(OC[C@H]1O[C@@H](n2ccc(=O)[nH]c2=O)[C@](C)(F)[C@@H]1O)Oc1ccccc1 (stereo partly specified)")
"> 100 µM"
>>> test_value("O=C(Cn1c(-c2ccccc2)cc2ccccc21)N1CCCC1")
"> 100 µM"

====

- Tested on: SF-539 CNS
- assay_text: NCI tumour cell line growth inhibition, 48 h
Where a SMILES comes first, the peptide text is derived from it. The star is where a group is joined. Boc = CC(C)(C)OC(=O)*
The following molecules are shown together with reported TGI values.
assay_metric: TGI

>>> test_value("COC(=O)c1ccc2c(c1)/C(=C\\c1cc(Br)c(O)c(Br)c1)C(=O)N2")
"> 25 µM"
>>> test_value("CC(=O)c1c(O)ccc2c1c1c(n2C)C(=O)c2ccccc2C1=O")
"> 100 µM"
>>> test_value("CCOC1c2cc(C(C)C)c(O)c(O)c2[C@@]23CCCC(C)(C)C2C1OC3=O (stereo partly drawn)")
"> 100 µM"
>>> test_value("C=C(Nc1nc2ccc(C)cc2s1)C(=O)C(CC)C(=O)C(CC)CC1C(=O)NC(=O)NC1=O (stereo not drawn)")
"> 100 µM"
>>> test_value("C[C@H](Nc1cc(Cl)nc2c1cnn2[C@@H]1O[C@H](COP(=O)(O)CP(=O)(O)O)[C@@H](O)[C@H]1O)c1ccccc1F")
"> 100 µM"
>>> test_value("COC(=O)C(C)NC(=O)C(CCSC)NC(=O)C(Cc1ccccc1)NC(=O)OC(C)(C)C (stereo not drawn) (Boc-Phe-Met-Ala-OMe; configuration not given here)")
"> 100 µM"
>>> test_value("C=COC(=O)N[C@H]1CCc2cc(OC)c(OC)c(OC)c2-c2ccc(SC)c(=O)cc21")
"< 0.0464 µM"
>>> test_value("O=C1NC(N/N=C\\C(O)C(O)C(O)C(O)CO)=N/C1=C/c1ccc(Cl)cc1 (stereo not drawn)")
"> 100 µM"
>>> test_value("O=[P@@]1(c2ccccc2)O[C@H](COCc2ccccc2)[C@@H](OCc2ccccc2)[C@H](OCc2ccccc2)[C@H]1NCc1ccccc1")
"> 100 µM"
>>> test_value("CN(CCN(C)C(=O)CCn1cc(F)c(=O)[nH]c1=O)C(=O)CCn1cc(F)c(=O)[nH]c1=O")
"> 100 µM"
>>> test_value("CCOC(=O)/C=C(/C(=O)OCC)n1cnc2c(=O)[nH]c(NC(C)=O)nc21")
"> 100 µM"
>>> test_value("C=C(C)C1CCC2(C)CC1c1c(c(C)cc3c1[nH]c1ccccc13)O2 (stereo not drawn)")
"> 25 µM"
>>> test_value("Cc1nn(C(=O)CC(=O)Nc2ccc(Cl)cc2)c(C)c1N=Nc1ccccc1C(=O)O")
"> 100 µM"
